System: PC26
Experiment: qHTS profiling for inhibitors of Plasmodium falciparum proliferation (AID 504749); also: nearly all actives have a fitted effect of over 60% in size; also: potency is read from the fitted curve at half-maximal effect
Settings: P. falciparum in erythrocytes, SYBR Green DNA, 72 h; series mostly up to 28.7 µM
Results filed as inconclusive are left out. Activity calls are given as the source filed them. Calls follow the shape of the dose curve; as a rule, active = well fitted inhibition curve with a large enough effect; inconclusive = small, poorly fitted or top-dose-only effect; inactive = flat fitted curve, though single readings scatter.
endpoint: Potency

compound	experimentalTarget	Potency
Cc1cc2nc3c(=O)[nH]c(=O)nc-3n(CC(O)C(O)C(O)CO)c2cc1C (stereo not given)	PC26	inactive
Clc1ccc(COC(Cn2ccnc2)c2ccc(Cl)cc2Cl)c(Cl)c1 (stereo not given)	PC26	2560 nM (active)
NS(=O)(=O)c1cc(Cl)c(Cl)c(S(N)(=O)=O)c1	PC26	inactive
N#CC(c1ccc(Cl)cc1)c1c(Cl)cc(-n2ncc(=O)[nH]c2=O)cc1Cl (stereo not given)	PC26	inactive

Reported Potency ( `C=C1c2cccc(O)c2C(O)=C2C(=O)[C@@]3(O)C(O)=C(C(N)=O)C(=O)[C@@H](N(C)C)[C@@H]3[C@@H](O)[C@H]12` ) = inactive
